B1: WDFY1 (parent)
chain: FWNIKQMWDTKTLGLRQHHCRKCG

Variants of: B1
Assay: protein stability index of a GFP-peptide fusion (GPS, HEK-293T) (PSI 1-6); higher = more stable;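 also: lentivirally expressed fusions sorted by FACS into six bins by GFP to DsRed ratio, PSI derived from sequencing read proportions per bin multiplied by bin number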
Conditions: c terminus: a fixed tail appended
Range-based classes on measured protein stability index: bin 0 = under 2, bin 1 = from 2 up to 3, bin 2 = 3 and over

Problem: Would you mind sorting T10W into the appropriate category?
Solution: bin 1

Problem: Ok, now T10K
Solution: bin 2

Problem: Then W8S ?
Solution: bin 2

Problem: Then what about the variant T12M ?
Solution: bin 1

Problem: Same read-out for W2Y ?
Solution: bin 1

Problem: Then what about the variant W2F ?
Solution: bin 1

Problem: Now try W8M .
Solution: bin 1

Problem: Next record, please: C20W
Solution: bin 1

Problem: # repeat for L15G
Solution: bin 0

Problem: Also K5L ?
Solution: bin 0

Problem: H18N ?
Solution: bin 1

Problem: Consider next the variant F1C in the same way.
Solution: bin 1

Problem: Please do the same for G14V as well.
Solution: bin 0

Problem: Now give it for R21G too.
Solution: bin 0

Problem: Entry G14A please
Solution: bin 1

Problem: Same read-out for C20Q ?
Solution: bin 2

Problem: Do the same for F1I please
Solution: bin 0

Problem: # repeat for R16V
Solution: bin 0
